Recorded measurements of Color (White background) L*, one per entry
Experiment: Color of pigmented and complete PUDs (ISO 7724-2)
Assay type: physicochemical
Settings: White background
Protocol: Tests were first performed to determine the coalescing agent level for pigmented and complete PUD formulations in order to achieve the optimum film formation. […] Gloss measurements serve as an indicator of the paints surface quality. Gloss and color measurements were determined according to the ISO 2813 standard and the ISO 7724-2 standard (SCI-D65/10°), respectively.
Please give the numeric answer without any surrounding text.

- compound: "CCCCN1CCCC1=O [NBP, N-butyl pyrrolidone, reference compound]"
  Color (White background) L*: 95.01
- compound: "CN1CCCCCC1=O"
  Color (White background) L*: 95.07
- compound: "CCN1CCCCCC1=O"
  Color (White background) L*: 95.04
- compound: "COC(=O)CCCCC(=O)N(C)C [Ester amide]"
  Color (White background) L*: 94.98

We now examine a further compound.
Briefly, Color (White background) L* measured for CN1CCCC1=O [NMP, N-methyl pyrrolidone, reference compound] : 95.14

====

Recorded measurements of Loss of thickness after 200 wet-scrub cycles, one per entry
Experiment: Scrub resistance of pigmented and complete PUDs (ISO 11998)
Format: physicochemical
Conditions: calculated from weight loss
Experimental: Tests were first performed to determine the coalescing agent level for pigmented and complete PUD formulations in order to achieve the optimum film formation. […] Scrub resistance was tested according the ISO 11998 “Paints and Varnishes—Determination of Wet-Scrub Resistance and Cleanability of Coatings” standard. […] The panel was then washed, dried and weighed to determine the loss from which the mean loss in film thickness was calculated. […]

Known Loss of thickness after 200 wet-scrub cycles results, listed for orientation:
- compound: "CCCCN1CCCC1=O [NBP, N-butyl pyrrolidone, reference compound]"
  observed-result: "2.213 µm"
- compound: "CN1CCCCCC1=O"
  observed-result: "2.035 µm"

We now examine a further compound.
Briefly, Loss of thickness after 200 wet-scrub cycles measured for CN1CCCC1=O [NMP, N-methyl pyrrolidone, reference compound] : 2.090 µm
